test: Cytotoxicity against human HeLa cells after 72 hrs by MTS assay; format: cell-based; settings: HeLa cells
Measurement Type: CC50 at 72 h (µM)
Express it in µM; write the number only.

Q) Reported CC50 at 72 h for "Cn1c(=O)nc2n(Cc3ccc(F)cc3)nc(-c3nc4ccccc4s3)nc-2c1=O" : what is it?
A) 23.4

Q) Reported CC50 at 72 h for "CCn1nc(-c2ccc[nH]2)[n+]([O-])c2c(=O)n(C)c(=O)nc1-2" : what is it?
A) 5.2

Q) Reported CC50 at 72 h for "CCCn1nc(-c2nc3ccccc3s2)nc2c(=O)n(C)c(=O)nc1-2" : what is it?
A) 15.6

Q) Reported CC50 at 72 h for "CCn1nc(-c2ccc(C)o2)[n+]([O-])c2c(=O)n(C)c(=O)nc1-2" : what is it?
A) 9.8

Q) Reported CC50 at 72 h for "CCn1nc(-c2ccc(C)s2)nc2c(=O)n(C)c(=O)nc1-2" : what is it?
A) 22.2

---

test system: SH-SY5Y; assay: Cytoprotection against oxygen-glucose deprivation-induced cytotoxicity in human SH-SY5Y cells at 0.5 uM after 28 hrs by MTS assay; assay type: functional
Would you mind telling me the reported Activity of each entry?
Express it in %; write the number only.

Q) Reported Activity for "CCCCn1nc(-c2nccs2)nc2c(=O)n(C)c(=O)nc1-2" : what is it?
A) 7

Q) Reported Activity for "CCn1nc(-c2cccs2)nc2c(=O)n(C)c(=O)nc1-2" : what is it?
A) 18

Q) Reported Activity for CC1=C(O)C(=O)C=C2C1=CC=C1[C@@]2(C)CC[C@@]2(C)[C@@H]3C[C@](C)(C(=O)O)CC[C@]3(C)CC[C@]12C [CELASTROL] : what is it?
A) 8

Q) Reported Activity for "CCCCn1nc(-c2nc3ccccc3s2)nc2c(=O)n(C)c(=O)nc1-2" : what is it?
A) 14

---

test: Cytotoxicity against human HeLa cells after 72 hrs by MTS assay; assay type: cell-based; settings: HeLa cells
Measurement Type: CC50 at 72 h (µM)
Express it in µM; write the number only.

Q) Reported CC50 at 72 h for "CCCCn1nc(-c2ncc[nH]2)nc2c(=O)n(C)c(=O)nc1-2" : what is it?
A) 3.6

Q) Reported CC50 at 72 h for "CCCCn1nc(-c2ccc(C)s2)[n+]([O-])c2c(=O)n(C)c(=O)nc1-2" : what is it?
A) 6.6

Q) Reported CC50 at 72 h for "CCCCn1nc(-c2ccc(C)o2)nc2c(=O)n(C)c(=O)nc1-2" : what is it?
A) 7.8

Q) Reported CC50 at 72 h for "CCCCn1nc(-c2nc3ccccc3s2)nc2c(=O)n(C)c(=O)nc1-2" : what is it?
A) 8.7

Q) Reported CC50 at 72 h for "CCCCn1nc(-c2ccc3ccccc3n2)nc2c(=O)n(C)c(=O)nc1-2" : what is it?
A) 9.5

Q) Reported CC50 at 72 h for "CCn1nc(-c2ccco2)nc2c(=O)n(C)c(=O)nc1-2" : what is it?
A) 5.6

---

assay: Therapeutic index, ratio of CC50 for human SK-N-SH cells to EC50 for human SK-N-SH cells; assay type: cell-based; conditions: read-out: Ratio CC50/EC50
Measurement Type: selectivity ratio

Q) Reported selectivity ratio for "CCn1nc(-c2ccc(C)s2)nc2c(=O)n(C)c(=O)nc1-2" : what is it?
A) ≤ 48
